Measured values drawn from paper PMC4385830 for this set.

# Test system: Malignant MN525
# ASSAY_DETAILS: Cell viability, MTT assay
# Type: cell-based
# RECORDED_CONDITIONS: NF2+/+, 72 hrs
pIC50: −log10 of the molar value.
VALUE_KIND: pIC50

| COMPOUND | VALUE_KIND | BOUND_OPERATOR | EXPERIMENTAL_RESULT |
| --- | --- | --- | --- |
| CCn1c(=O)c(-c2ccc(-c3cncc(C)n3)cc2Cl)cc2cnc(NCCC3CCN(C)CC3)nc21 | pIC50 | = | 5.48 |
| CCn1c(=O)c(-c2ccc(-c3cncs3)cc2Cl)cc2cnc(Nc3ccc(N4CCN(C)CC4)cc3)nc21 | pIC50 | = | 5.80 |
| CCn1c(-c2nonc2N)nc2c(C#CC(C)(C)O)ncc(OC[C@H]3CCCNC3)c21 | pIC50 | < | 4.70 |
| Cc1nc(Nc2[nH]nc3c2CN(C(=O)N[C@H](CN(C)C)c2ccccc2)C3(C)C)c2sccc2n1 [PF3758309, reference compound] | pIC50 | = | 5.27 |
| CCn1c(=O)c(-c2ccc(-c3noc(C)n3)cc2Cl)cc2cnc(Nc3ccc(C4CCN(C)CC4)cc3)nc21 | pIC50 | = | 6.31 |
| O=C(NOC[C@H](O)CO)c1ccc(F)c(F)c1Nc1ccc(I)cc1F | pIC50 | < | 4.70 |
